Tested on: SN12C renal
Procedure Text: NCI-60 one-dose screen, 48 h
Settings: 10 µM unless noted
This is part of a sample that, as a whole, favours compounds with a hit. Of some 83,000 tested, about 20% had one in any assay. Activity calls are given as the source filed them. How the source made its calls: active means growth percent below 10; inactive means the rest.
Please state which outcome applies, choosing from true (active), false (inactive)

1) CS(=O)(=O)c1nsc(N)n1	false

Prompt: Could you kindly confirm the outcome this assay logged for COc1cc2oc3cc(=O)cc4oc(-c5ccccc5)cc(c2c2c1CCC(c1ccccc1)O2)c43 (stereo not drawn) ?
Completion: false

Prompt: Entry CCC(C)NC(=O)c1ccccc1C (stereo not drawn) : call = ?
Completion: false

Prompt: Call for entry `CC(=O)Nc1cscc1NC(C)=O` :
Completion: false

Prompt: Please let me know the test result on file for `COC(=O)c1nc(N)nc(C(=O)OC)c1C(=O)c1ccc(F)cc1` .
Completion: false

Prompt: Dear all, I need the recorded test outcome for `O=C(c1ccccc1)C1(Br)CCCCC1` , thank you.
Completion: false

Prompt: Please let me know the test result on file for CCN(CC)C(CC(=O)c1ccccc1)C(=O)c1ccccc1 (stereo not drawn) .
Completion: false

Prompt: I'd appreciate the recorded outcome for `CC(=O)c1cccc(OC(=O)c2ccccc2)c1` from this test.
Completion: false

Prompt: Dear colleague, could you share the recorded outcome for `COCCNC(C)=O` when you have a moment?
Completion: false

Prompt: Could you kindly confirm the outcome this assay logged for CC(C)=NOC(C)C(=O)O (stereo not drawn) ?
Completion: false

Prompt: In this assay, the call recorded for `O=C1c2cccnc2-c2ncccc21` was what?
Completion: false

Prompt: Outcome logged for `COc1ccc(/C=N/NC(N)=S)cc1` in this assay:
Completion: false

Prompt: // param item: `O=C1Cc2ccccc2C(=O)N1` ; yields the recorded call
Completion: false

Prompt: Hi, do you know how `CC1(C)CC(=O)NC1=O` came out in this test?
Completion: false

Prompt: Called result for `Clc1ccc2sc(-c3ccccc3)nc2c1`
Completion: false

* * *

System: HCT-15 colon
Procedure Text: NCI-60 one-dose screen, 48 h (100 = growth as untreated, 0 = no growth, -100 = all killed)
Settings: 10 µM unless noted
Compounds without any hit were thinned out: in the full panel of roughly 83,000, 20% have a hit.
Attribute Measured: growth (%)
Reply numerically in %, unit not repeated.

Example cases with answers are listed next.
1) COc1ccc2nccc(Cl)c2c1	109
2) CCN(C)c1ccccc1	101

Prompt: // returns reported growth for input `Cc1ccc([N+](=O)[O-])cc1Br`
Completion: 101

Prompt: Consider the compound shown here: `ON=C(C1CCCCC1)C1CCCCC1` What is its recorded growth?
Completion: 106

Prompt: So what does the record say about growth for `CCOP(=O)(OCC)/C(C#N)=C/c1c(C)[nH]c2ccccc12` ?
Completion: 108

Prompt: Could you tell me which growth is on file for `NC(=O)Cc1nc(O)cc(=O)[nH]1` ?
Completion: 96.9

Prompt: Given the compound `O=C(O)Cc1cc(=O)[nH]n(-c2ccccc2)c1=O` , what is its reported growth?
Completion: 107

* * *

Tested on: M14 melanoma
Procedure Text: NCI-60 one-dose screen, 48 h (100 = growth as untreated, 0 = no growth, -100 = all killed)
Settings: 10 µM unless noted
The panel holds about 83,000 compounds, 20% with a hit somewhere; the sample as a whole holds those more often. Activity calls are given as the source filed them. The calls were made as follows: active = growth percent below 10; inactive = the rest.
Recorded growth, one value per entry.

Use these answered entries as a reference point.
1. N#Cc1c(N)nc2c(c(-c3ccc(Cl)cc3)nn2-c2ccccc2)c1C#N	106% [100 µM] (inactive)
2. O=S(=O)(O)c1ccc2cc(O)ccc2c1	103% (inactive)
3. COC(=O)CCOc1ccccc1	106% (inactive)

Prompt: Suppose we examine the molecule `CS(=O)(=O)c1nsc(N)n1` ; what growth value has been reported?
Completion: 104% (inactive)

Prompt: Need growth of `C=CCN1C(=O)c2ccccc2C1=O` , thanks.
Completion: 99.9% (inactive)

Prompt: Report growth for `CC1(C)CC(=O)NC1=O` please.
Completion: 95% (inactive)

Prompt: Query: growth; subject: `Cc1ccc(S(=O)(=O)n2ccnc2)cc1`
Completion: 104% (inactive)

Prompt: Please look up its growth: Clc1ccc2c(c1)N(C1CCCN(Cc3ccccc3)C1)c1ccccc1S2 (stereo unspecified)
Completion: -26.9% (active)

Prompt: Reported growth, molecule `O=C(O)COc1ccccc1F` : ____
Completion: 103% (inactive)

Prompt: Which growth is reported for this molecule? `CC(=O)Oc1cc(C(C)C)c(OCCN(C)C)cc1C`
Completion: 99.8% (inactive)

Prompt: Consider the molecule shown here: CCOP(C)(=O)/C(Cc1ccc(OC)c(OC)c1)=N\O (stereo unspecified) What is its recorded growth?
Completion: 108% (inactive)

Prompt: Need growth of `CC(C)(C)OC(=O)NCCc1ccc(N)cc1` , thanks.
Completion: 104% (inactive)

Prompt: growth lookup needed for `Cc1nc(Nc2ccc(Cl)cc2)c2cnn(-c3ccccc3)c2n1` , thanks.
Completion: 100% (inactive)

Prompt: Fill in: growth of `Cc1cc(=NO)cc(C)n1O` is ___
Completion: 108% (inactive)

Prompt: Suppose we examine the molecule `Nc1nc(=S)c2[nH]cnc2[nH]1` ; what growth value has been reported?
Completion: 5.54% (active)

Prompt: Sample `OCCCc1ccccc1` — what was its growth?
Completion: 100% (inactive)

Data provenance is PubChem BioAssay (NCI).
